CC50 at 24 h values, listed per item
assay: in vitro; conditions: rat, gh3-tre-luc cells, AC50 (uM) modified / 1000
Where a name gives a salt, the structure may show the parent alone.
PARAMETER: CC50 at 24 h

COc1ccccc1N1CCN(CCCNc2cc(=O)n(C)c(=O)n2C)CC1 [Urapidil]; > 50 µM
Cn1nnc2c(C(N)=O)ncn2c1=O [Temozolomide]; > 50 µM
Sc1nnc(S)s1 [2,5-Dimercapto-1,3,4-thiadiazole]; > 90 µM
Cc1ccc(Cl)cc1N [5-Chloro-2-methylaniline]; > 90 µM
CC(C)(C)C(O)/C=C/c1ccc2c(c1)OCO2 (centres unmarked) [Stiripentol]; > 50 µM
Nc1cc(Cl)c(-c2cc(Cl)c(N)cc2Cl)cc1Cl [2,2',5,5'-Tetrachlorobenzidine]; 13.7 µM
CSSc1ccoc1C [Methyl 2-methyl-3-furyl disulfide]; > 80 µM
C=CC(N)CCC(=O)O (centres unmarked) [Vigabatrin]; > 50 µM
CO/C=C(/C(=O)OC)c1ccccc1Oc1cc(Oc2ccccc2C#N)ncn1 [Azoxystrobin]; > 100 µM
CC(=O)SCc1ccco1 [S-Furfuryl thioacetate]; > 90 µM
CCN(CC)C(=O)/C(C#N)=C/c1cc(O)c(O)c([N+](=O)[O-])c1 [Entacapone]; > 50 µM
CN1[C@@H]2CC[C@H]1C[C@@H](OC(c1ccccc1)c1ccccc1)C2 [Benztropine]; 24.5 µM
C=C[Si](C)(C=C)O[Si](C)(C)C [Divinyltetramethyldisiloxane]; > 90 µM
CN(C)CCc1c[nH]c2cccc(O)c12 [Psilocin]; > 90 µM
C=CC(=O)OC [Methyl acrylate]; > 90 µM
O=C(OCC(O)CO)c1ccccc1Nc1ccnc2cc(Cl)ccc12 (centres unmarked) [Glafenine hydrochloride]; > 20 µM
Cc1[nH]c(=O)n(C(C)(C)C)c(=O)c1Cl [Terbacil]; > 90 µM
O=P(O)(O)C(Cl)(Cl)P(=O)(O)O [Clodronic acid, disodium salt]; > 50 µM
c1ccc(C(O[C@@H]2CCCN(CCc3ccc4c(c3)OCO4)C2)c2ccccc2)cc1 [Zamifenacin fumarate]; 26.4 µM
Nc1nc(NC2CC2)c2ncn([C@H]3C=C[C@@H](CO)C3)c2n1 [Abacavir]; > 50 µM

---

experiment: in vitro; settings: rat, gh3-tre-luc cells, AC50 (uM) modified / 1000
Parameter: CC50 at 24 h. Scope: all listed entries.
PARAMETER: CC50 at 24 h

CCCCCCCCCCCCCCCC(=O)OC[C@H](COP(=O)([O-])OCC[N+](C)(C)C)OC(=O)CCCCCCCCCCCCCCC [Colfosceril palmitate]; > 50 µM
CCCCCCc1ccc(-c2ccc(C#N)cc2)cc1; > 90 µM
CC1(N)CCC(C(C)(C)N)CC1 (stereo not shown); > 90 µM
CN(CCCCCCCCCCN(C)C(=O)Oc1cccc([N+](C)(C)C)c1)C(=O)Oc1cccc([N+](C)(C)C)c1 [Demecarium bromide]; > 20 µM

---

tested on: GH3-TRE-Luc cell line; conditions: read-out: AC50 (uM) modified / 1000; Tox21_110001=Tox21_111150; viability, 1 nM T3 present, 24 h
PARAMETER: CC50 (µM)

CN(C)C(=S)SSC(=S)N(C)C [Thiram]; 0.159

---

assay: in vitro; conditions: rat, gh3-tre-luc cells, AC50 (uM) modified / 1000, Tox21_110001=Tox21_202323; viability, 1 nM T3 present, 24 h
PARAMETER: CC50 at 24 h

c1ccc(NNc2ccccc2)cc1 [1,2-Diphenylhydrazine]; > 90 µM

---

experiment: in vitro; details: rat, gh3-tre-luc cells, AC50 (uM) modified / 1000, Tox21_110001=Tox21_202383; viability, 1 nM T3 present, 24 h
PARAMETER: CC50 at 24 h

CCOP(=S)(OCC)Oc1nc(Cl)c(Cl)cc1Cl [Chlorpyrifos]; 53.7 µM

---

assay: in vitro; settings: rat, gh3-tre-luc cells, AC50 (uM) modified / 1000, Tox21_110001=Tox21_112607; viability, 1 nM T3 present, 24 h
PARAMETER: CC50 at 24 h

CN1[C@H]2CC[C@@H]1[C@@H](C(=O)O)[C@@H](OC(=O)c1ccccc1)C2 [Benzoylecgonine]; > 50 µM

---

test system: GH3-TRE-Luc cell line; conditions: read-out: AC50 (uM) modified / 1000; Tox21_110001=Tox21_110832; viability, 1 nM T3 present, 24 h
PARAMETER: CC50 (µM)

Oc1c(Cl)cc(Cl)cc1Sc1cc(Cl)cc(Cl)c1O [Bithionol]; 12.4

---

Each entry below lists one item and its recorded CC50 at 24 h value.
experiment: in vitro; conditions: rat, gh3-tre-luc cells, AC50 (uM) modified / 1000
PARAMETER: CC50 at 24 h

CCCCCCCCOC(=O)c1ccc(O)cc1 [Octylparaben]; 60.4 µM
CN1CCN(CC/C=C2/c3ccccc3Sc3ccc(S(=O)(=O)N(C)C)cc32)CC1 [Thiothixene]; 10.7 µM
CC(C)C(=O)OCCOc1ccccc1 [Phenoxyethyl isobutyrate]; > 90 µM
CC(C)Cn1cnc2c(N)nc3ccccc3c21 [Imiquimod]; > 50 µM
CN(C)C(=O)C(c1ccccc1)c1ccccc1 [Diphenamid]; > 90 µM
C/C=C(/CC[C@@H](C)[C@H]1CC[C@H]2C3=CC[C@H]4[C@H](C)[C@@H](O)CC[C@]4(C)[C@H]3CC[C@]12C)C(C)C [Sitosterol alpha1]; > 50 µM
O=C(c1ccccc1)C1(O)CCCCC1 [(1-Hydroxycyclohexyl)(phenyl)methanone]; > 90 µM
O=c1c(O)c(O)c1=O [Squaric acid]; > 90 µM
COc1ccc(S(=O)(=O)Nc2nnc(CC(C)C)s2)cc1 [Glysobuzole]; > 50 µM

---

Property: TRb-bla hitc; scope: individual molecules
Target: human TRβ ligand-binding domain (Homo sapiens, UniProt P10828)
Sequence (P10828 217-461 limits assumed): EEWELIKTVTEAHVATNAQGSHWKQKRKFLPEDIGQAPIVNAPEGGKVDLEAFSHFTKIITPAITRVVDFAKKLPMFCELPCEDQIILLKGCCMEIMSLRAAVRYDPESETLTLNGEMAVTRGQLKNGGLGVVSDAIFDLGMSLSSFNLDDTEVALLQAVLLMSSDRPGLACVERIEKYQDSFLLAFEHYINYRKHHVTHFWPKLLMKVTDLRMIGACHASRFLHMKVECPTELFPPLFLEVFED
Assay: TRb-bla agonist mammalian one-hybrid beta-lactamase assay (TOX21_TRB_BLA_Agonist_Followup_ratio, aeid 2236)
Type: cell-based
Set-up: host or cells: GeneBLAzer UAS-bla HEK 293T
Conditions: hit call from tcpl; agonist
Structures can show the parent of a compound that is named as a salt.
PARAMETER: TRb-bla hitc

CC(C)(C)CC(C)(C)c1ccc(O)c(Cc2ccc(Cl)cc2Cl)c1 [Clofoctol, reference compound]; 0
C[C@]12CC[C@H]3C(=CCc4cc(O)ccc43)[C@@H]1CCC2=O [Equilin, reference compound]; 0
Cl.NC(CO)(CO)CO [Tromethamine hydrochloride]; 1
CC1=C(/C=C/C(C)=C/C=C/C(C)=C/C(=O)O)C(C)(C)CCC1 [all trans-Retinoic acid, reference compound]; 1
COc1ccc(OC)c(C(O)C(C)N)c1 (centres unmarked) [Methoxamine hydrochloride]; 0
c1csc(-c2ccc(-c3cccs3)s2)c1; 0
Cc1cccc(C)c1[N+](=O)[O-]; 0
C[C@H](CCC(=O)NCC(=O)O)[C@H]1CC[C@H]2[C@@H]3[C@H](O)C[C@@H]4C[C@H](O)CC[C@]4(C)[C@H]3C[C@H](O)[C@]12C; 0

---

assay: in vitro; conditions: rat, gh3-tre-luc cells, AC50 (uM) modified / 1000, Tox21_110001=Tox21_301297; viability, 1 nM T3 present, 24 h
PARAMETER: CC50 at 24 h

NC(=O)CF [2-Fluoroacetamide]; > 90 µM

---

assay: in vitro; conditions: rat, gh3-tre-luc cells, AC50 (uM) modified / 1000
Structures can show the parent of a compound that is named as a salt.
PARAMETER: CC50 at 24 h

CCC(CO)(CO)[N+](=O)[O-]; > 90 µM
CCCCCCOc1ccccc1C(N)=O [Exalamide]; > 50 µM
C=C(NC(=O)C(=C)NC(=O)c1csc(C2=N[C@@H]3c4csc(n4)[C@H]4NC(=O)c5csc(n5)[C@H]([C@](C)(O)[C@@H](C)O)NC(=O)[C@H]5CSC(=N5)/C(=C/C)NC(=O)[C@H]([C@@H](C)O)NC(=O)c5csc(n5)[C@]3(CC2)NC(=O)[C@H](C)NC(=O)C(=C)NC(=O)[C@H](C)NC(=O)[C@H]([C@@H](C)CC)N[C@@H]2C=Cc3c([C@H](C)O)cc(nc3[C@H]2O)C(=O)O[C@@H]4C)n1)C(N)=O; 6.56 µM
CC1(C)C(=O)N(Br)C(=O)N1Cl; > 90 µM
CCC(=O)O[C@]1(C(=O)CCl)[C@@H](C)C[C@H]2[C@@H]3CCC4=CC(=O)C=C[C@]4(C)[C@@]3(F)[C@@H](O)C[C@@]21C [Clobetasol propionate]; > 50 µM
C=C[C@]1(C)C[C@@H](OC(=O)CSCCN(CC)CC)[C@]2(C)[C@H](C)CC[C@]3(CCC(=O)[C@H]32)[C@@H](C)[C@@H]1O; 14.1 µM
Nc1ccc(Cl)cc1Cl; > 90 µM
C=C(C)C(=O)OC1CC(C)CC(C)(C)C1 (centres unmarked); > 90 µM
CN[C@@H](C)Cc1ccccc1 [S-(+)-Methamphetamine hydrochloride]; > 90 µM
O=S(=O)(O)c1ccc2[nH]c(-c3ccccc3)nc2c1; > 90 µM
CC1CCCC(=O)C1=O (centres unmarked); > 90 µM
CCC(C)n1ncn(-c2ccc(N3CCN(c4ccc(OC[C@H]5CO[C@](Cn6cncn6)(c6ccc(Cl)cc6Cl)O5)cc4)CC3)cc2)c1=O (mixture of isomers); 3.2 µM
CCCCCCOC(=O)CCCCC(=O)OCCCCCC [Dihexyl hexanedioate]; > 90 µM
CN(C)CCOCCN(C)CCO; > 90 µM
CC(C)(C)[C@H](O)[C@H](Cc1ccc(Cl)cc1)n1cncn1 (racemic); > 90 µM
CCOc1cc(CC(=O)N[C@@H](CC(C)C)c2ccccc2N2CCCCC2)ccc1C(=O)O [Repaglinide]; > 20 µM
O=C(OCCc1ccccc1)c1ccccc1 [2-Phenylethyl benzoate]; > 90 µM

Every entry's value here was drawn from paper PMC6792352.
